# protocol: LD50 (acute toxicity)
# experimental.context: in vivo, ip; I.P.; read-out: LD50 I.P.
The entries below are paired with their reported LD50.

For CC(C(=O)O)c1ccc(C2=CC(=NO)CCC2)cc1 (centres unmarked) [Example 1] , what is its reported LD50?
> 100 mg/kg

For CC(C(=O)O)c1ccc(C2CCCC(=NO)C2)cc1 (centres unmarked) [Example 2] , what is its reported LD50?
> 200 mg/kg

----------
The entries below are paired with their reported LD50.
# protocol: LD50 (acute toxicity)
# experimental.context: in vivo, po; P.O.; read-out: LD50 P.O.

CC(C(=O)O)c1ccc(C2CCCC(=NO)C2)cc1 (centres unmarked) : > 200 mg/kg

For CC(C(=O)O)c1ccc(C2=CC(=NO)CCC2)cc1 (centres unmarked) , what is its reported LD50?
> 100 mg/kg
